- test-summary: Elimination half life in Sprague-Dawley rat at 1 mg/kg, iv by LC-ESI-MS analysis
- Type: ADME, organism-based
- experimental-setup: in vivo, read-out: beta t1/2 (converted)
property-measured: half-life (h)
Give the value in h but do not write h after it.

Query string: Please report the recorded half-life for CC#C[C@@H](CC(=O)O)c1ccc(OC[C@H]2COc3ccc(Cl)cc3O2)cc1 .
Result string: 13.2

---

- test-system: Cytochrome P450 2B6 (Homo sapiens, UniProt P20813)
- Sequence (P20813 whole entry): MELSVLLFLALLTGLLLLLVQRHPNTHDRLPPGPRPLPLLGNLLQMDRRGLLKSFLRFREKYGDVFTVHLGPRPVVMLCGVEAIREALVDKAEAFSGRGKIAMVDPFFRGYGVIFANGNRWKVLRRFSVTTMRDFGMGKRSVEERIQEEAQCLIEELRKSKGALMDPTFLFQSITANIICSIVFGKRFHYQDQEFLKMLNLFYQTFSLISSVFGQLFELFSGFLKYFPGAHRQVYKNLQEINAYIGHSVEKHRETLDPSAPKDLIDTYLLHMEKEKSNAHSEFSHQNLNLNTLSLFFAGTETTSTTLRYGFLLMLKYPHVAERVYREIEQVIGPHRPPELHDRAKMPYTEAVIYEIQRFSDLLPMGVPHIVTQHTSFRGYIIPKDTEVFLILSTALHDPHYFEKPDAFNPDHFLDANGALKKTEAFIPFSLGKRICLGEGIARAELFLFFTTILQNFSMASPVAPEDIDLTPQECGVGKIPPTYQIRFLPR
property-measured: IC50 (µM)
Give the value in µM but do not write µM after it.

Query string: Under Cytochrome P450 2B6 (Homo sapiens, UniProt P20813): IC50 value of CC#C[C@@H](CC(=O)O)c1ccc(OC[C@H]2COc3ccc(Cl)cc3O2)cc1 ?
Result string: 84.7

---

- test-system: Cytochrome P450 3A4 (Homo sapiens, UniProt P08684)
- Sequence (P08684 whole entry): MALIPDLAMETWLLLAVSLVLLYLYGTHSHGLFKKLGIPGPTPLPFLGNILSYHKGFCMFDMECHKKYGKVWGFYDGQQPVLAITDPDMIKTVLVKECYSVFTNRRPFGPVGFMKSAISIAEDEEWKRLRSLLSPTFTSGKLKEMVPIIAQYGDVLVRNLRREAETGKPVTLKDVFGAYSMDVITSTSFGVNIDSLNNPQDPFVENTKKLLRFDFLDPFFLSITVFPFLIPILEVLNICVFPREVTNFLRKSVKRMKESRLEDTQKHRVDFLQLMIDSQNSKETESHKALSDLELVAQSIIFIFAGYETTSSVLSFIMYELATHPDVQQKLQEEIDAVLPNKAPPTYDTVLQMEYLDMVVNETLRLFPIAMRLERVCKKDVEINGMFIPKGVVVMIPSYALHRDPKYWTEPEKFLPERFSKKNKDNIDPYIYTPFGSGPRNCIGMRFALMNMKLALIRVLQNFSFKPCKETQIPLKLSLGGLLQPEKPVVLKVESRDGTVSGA
property-measured: IC50

Query string: Please report the recorded IC50 for CC#C[C@@H](CC(=O)O)c1ccc(OC[C@H]2COc3ccc(Cl)cc3O2)cc1 .
Result string: > 100 µM

---

- test-system: UniProtKB O14842
- test-summary: Agonist activity at GPR40 (unknown origin)
- Format: functional
property-measured: pEC50
Please report pEC50 as the negative decimal logarithm of the molar concentration, giving only the number.

Query string: Please report the recorded pEC50 for CC#C[C@@H](CC(=O)O)c1ccc(OC[C@H]2COc3ccc(Cl)cc3O2)cc1 .
Result string: 7.34

---

- test-system: ATP-binding cassette sub-family C member 2 (Homo sapiens)
- Sequence (Q92887 whole entry): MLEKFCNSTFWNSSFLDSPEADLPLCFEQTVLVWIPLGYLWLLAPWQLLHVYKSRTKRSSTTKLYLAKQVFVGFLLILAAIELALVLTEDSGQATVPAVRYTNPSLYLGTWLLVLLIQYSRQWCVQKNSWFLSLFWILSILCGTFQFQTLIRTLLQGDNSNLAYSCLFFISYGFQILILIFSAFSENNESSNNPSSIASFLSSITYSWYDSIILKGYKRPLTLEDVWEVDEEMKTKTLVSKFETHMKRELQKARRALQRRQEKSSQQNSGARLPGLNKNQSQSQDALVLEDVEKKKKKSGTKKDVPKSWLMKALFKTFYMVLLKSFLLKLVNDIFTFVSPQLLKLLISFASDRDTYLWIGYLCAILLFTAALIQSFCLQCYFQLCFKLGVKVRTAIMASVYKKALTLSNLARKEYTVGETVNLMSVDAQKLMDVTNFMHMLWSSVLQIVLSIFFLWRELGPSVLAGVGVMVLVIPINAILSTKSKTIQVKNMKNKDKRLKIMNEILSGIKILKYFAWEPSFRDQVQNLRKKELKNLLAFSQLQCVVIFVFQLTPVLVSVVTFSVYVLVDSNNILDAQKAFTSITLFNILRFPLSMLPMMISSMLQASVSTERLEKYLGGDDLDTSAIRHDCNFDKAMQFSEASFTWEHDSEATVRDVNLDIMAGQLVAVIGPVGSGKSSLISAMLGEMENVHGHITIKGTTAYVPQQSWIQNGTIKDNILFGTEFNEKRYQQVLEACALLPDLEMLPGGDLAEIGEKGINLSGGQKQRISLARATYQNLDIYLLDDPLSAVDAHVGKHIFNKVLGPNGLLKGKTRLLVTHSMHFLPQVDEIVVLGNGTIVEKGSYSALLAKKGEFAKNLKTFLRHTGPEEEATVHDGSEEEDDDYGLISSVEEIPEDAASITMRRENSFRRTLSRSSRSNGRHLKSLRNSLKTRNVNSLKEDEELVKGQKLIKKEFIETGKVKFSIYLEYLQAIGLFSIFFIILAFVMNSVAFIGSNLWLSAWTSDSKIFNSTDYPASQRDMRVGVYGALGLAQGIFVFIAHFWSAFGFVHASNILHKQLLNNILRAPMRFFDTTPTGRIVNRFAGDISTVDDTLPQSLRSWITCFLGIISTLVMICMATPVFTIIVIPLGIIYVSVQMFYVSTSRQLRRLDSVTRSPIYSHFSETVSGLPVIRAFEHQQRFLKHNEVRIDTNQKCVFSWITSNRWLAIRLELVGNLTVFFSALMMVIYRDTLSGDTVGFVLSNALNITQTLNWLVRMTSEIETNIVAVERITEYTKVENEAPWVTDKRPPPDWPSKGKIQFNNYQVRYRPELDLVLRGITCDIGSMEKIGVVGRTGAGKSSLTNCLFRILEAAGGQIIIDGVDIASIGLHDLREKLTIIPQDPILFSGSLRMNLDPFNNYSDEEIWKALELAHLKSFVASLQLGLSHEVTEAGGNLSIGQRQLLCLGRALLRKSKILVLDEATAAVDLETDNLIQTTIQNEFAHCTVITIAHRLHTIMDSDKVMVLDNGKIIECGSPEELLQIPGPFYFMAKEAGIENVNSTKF
pIC50: −log10 of the molar value.
property-measured: pIC50

Query string: Under ATP-binding cassette sub-family C member 2 (Homo sapiens): pIC50 value of CC#C[C@@H](CC(=O)O)c1ccc(OC[C@H]2COc3ccc(Cl)cc3O2)cc1 ?
Result string: < 4.00

---

- test-system: Glucose-dependent insulinotropic receptor (Homo sapiens)
- Sequence (Q8TDV5 whole entry): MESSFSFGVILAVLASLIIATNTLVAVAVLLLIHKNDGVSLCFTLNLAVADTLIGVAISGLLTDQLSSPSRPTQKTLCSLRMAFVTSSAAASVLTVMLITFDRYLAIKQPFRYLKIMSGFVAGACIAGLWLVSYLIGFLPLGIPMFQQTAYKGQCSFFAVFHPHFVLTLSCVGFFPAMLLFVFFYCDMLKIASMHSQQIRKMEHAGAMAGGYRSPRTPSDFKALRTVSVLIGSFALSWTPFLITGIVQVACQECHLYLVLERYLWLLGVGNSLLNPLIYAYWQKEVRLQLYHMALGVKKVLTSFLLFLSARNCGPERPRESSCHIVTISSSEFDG
- test-summary: Agonist activity at GPR119 (unknown origin)
property-measured: EC50

Query string: Please report the recorded EC50 for CC#C[C@@H](CC(=O)O)c1ccc(OC[C@H]2COc3ccc(Cl)cc3O2)cc1 .
Result string: > 100 µM

---

- test-system: Free fatty acid receptor 1 (Homo sapiens, UniProt O14842)
- Sequence (O14842 whole entry): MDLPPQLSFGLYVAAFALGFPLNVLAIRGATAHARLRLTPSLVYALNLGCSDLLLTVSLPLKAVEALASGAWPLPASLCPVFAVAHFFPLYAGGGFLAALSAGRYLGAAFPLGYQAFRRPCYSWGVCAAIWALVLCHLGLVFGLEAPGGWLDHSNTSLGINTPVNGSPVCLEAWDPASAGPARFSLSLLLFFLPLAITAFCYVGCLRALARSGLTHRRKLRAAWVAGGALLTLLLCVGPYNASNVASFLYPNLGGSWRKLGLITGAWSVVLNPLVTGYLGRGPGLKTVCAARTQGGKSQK
- test-summary: Agonist activity at human GPR40 expressed in human HEK293 cells assessed as increase in intracellular calcium flux after 10 mins by fluorescence assay
- Type: functional, cell-based
Overview of reported log10(EC50) across a group of molecules:
Please keep in mind that the values are log10 of EC50 expressed in nM.

// known answers, use as guide
> print(dat)
                                   molecule  property.measured  reported.result
1  CC#CC(CC(=O)O)c1ccc(OCC2COc3ccc(Cl)cc3O2)cc1 (stereo not given)        log10(EC50)             2.00
2  CC#C[C@@H](CC(=O)O)c1ccc(OC[C@@H]2COc3ccc(Cl)cc3O2)cc1        log10(EC50)             2.41
3  CS(=O)(=O)CCCOc1ccc2c(c1)OC(COc1ccc(CCC(=O)O)c(F)c1)CC2 (stereo not given)        log10(EC50)             4.56
4  CC#C[C@@H](CC(=O)O)c1ccc(OC[C@H]2COc3cc(Cl)c(Cl)cc3O2)cc1        log10(EC50)             2.18
5  O=C(O)CCc1ccc(NCC2COc3ccc(Cl)cc3O2)cc1F (stereo not given)        log10(EC50)             4.13
6  CC#C[C@H](CC(=O)O)c1ccc(OC[C@@H]2COc3ccc(Cl)cc3O2)cc1        log10(EC50)             3.70
7  CC#C[C@@H](CC(=O)O)c1ccc(OC[C@H]2COc3ccccc3O2)cc1        log10(EC50)             1.95
8  Cn1cncc1C(CC(=O)O)c1ccc(OCC2COc3ccc(Cl)cc3O2)cc1 (stereo not given)        log10(EC50)             3.49

Query string: Please report the recorded log10(EC50) for COc1ccc2c(c1)OC(COc1ccc(CCC(=O)O)c(F)c1)CO2 (stereo not given) .
Result string: 3.17

Query string: Moving on to CC#C[C@H](CC(=O)O)c1ccc(OC[C@H]2COc3ccc(Cl)cc3O2)cc1
Result string: 3.53
